Target: GST-Nv-NF-kB (Ser allele) (Nematostella vectensis, UniProt A7UNT2 2-411)
Sequence: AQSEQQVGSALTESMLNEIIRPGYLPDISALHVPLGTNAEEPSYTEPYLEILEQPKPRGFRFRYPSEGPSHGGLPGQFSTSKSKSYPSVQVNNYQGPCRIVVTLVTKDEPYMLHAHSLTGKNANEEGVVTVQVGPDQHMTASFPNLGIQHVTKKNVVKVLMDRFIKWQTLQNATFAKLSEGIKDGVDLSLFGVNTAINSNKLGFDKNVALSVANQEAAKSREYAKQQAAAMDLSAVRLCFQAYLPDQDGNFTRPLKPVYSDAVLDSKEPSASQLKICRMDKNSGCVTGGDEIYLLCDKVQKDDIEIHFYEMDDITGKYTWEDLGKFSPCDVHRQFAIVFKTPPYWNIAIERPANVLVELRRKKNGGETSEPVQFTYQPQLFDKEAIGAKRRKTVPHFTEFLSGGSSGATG
Assay: protein-binding microarray (PBM); PBM: ~300 nM protein, 6 mM HEPES pH 7.8, 80 mM KCl, 0.5 mM EDTA, 0.5 mM EGTA, 6% glycerol, 35 ng/ul poly-dIdC, 1% milk, 1 h, room temperature; Ap Aiptasia and Nv Nematostella (sea anemones) / Co Capsaspora / Aq Amphimedon (sponge) / Dm Drosophila / Hu human; RHD is the Rel homology domain; high values mean tight binding
Details: dsDNA, one strand shown
binding signal of 3 z-score or higher: MET. Under 3 z-score: NOT MET.

# Monomer Sequence, System Name, Assigned Category
data = [
    ("CCGATTAACATCAAGGGGGGGATTGATGTTAATCGGGTCTTGATTCGCTTGACGCTGCTG", "GST-Nv-NF-kB (Ser allele) (Nematostella vectensis, UniProt A7UNT2 2-411)", "MET"),
    ("CCGATTAACATCAAGTGTTTCCCTGATGTTAATCGGGTCTTGATTCGCTTGACGCTGCTG", "GST-Nv-NF-kB (Ser allele) (Nematostella vectensis, UniProt A7UNT2 2-411)", "MET"),
    ("CCGATTAACATCAGGAACCTCCCTGATGTTAATCGGGTCTTGATTCGCTTGACGCTGCTG", "GST-Nv-NF-kB (Ser allele) (Nematostella vectensis, UniProt A7UNT2 2-411)", "NOT MET"),
]

In: Form field: binding signal at least 3 z-score? Entry: "CCGATTAACATCAAAGTACCCCCTGATGTTAATCGGGTCTTGATTCGCTTGACGCTGCTG"
Out: MET

In: Hi, just wondering whether "CCGATTAACATCACGGCTTTCCCTGATGTTAATCGGGTCTTGATTCGCTTGACGCTGCTG" shows binding signal of 3 z-score or higher.
Out: MET

In: Check this sequence for binding signal at or above 3 z-score: "CCGATTAACATCACGGATTTCCCTGATGTTAATCGGGTCTTGATTCGCTTGACGCTGCTG"
Out: MET

In: Record "CCGATTAACATCAGCCCCCCCCATGATGTTAATCGGGTCTTGATTCGCTTGACGCTGCTG" ; criterion: binding signal no lower than 3 z-score. Met?
Out: NOT MET

In: Answer whether binding signal of "CCGATTAACATCAGGGATTCTCATGATGTTAATCGGGTCTTGATTCGCTTGACGCTGCTG" is greater than or equal to 3 z-score.
Out: NOT MET

In: Test whether the sequence "CCGATTAACATCAAAAAAGACCCTGATGTTAATCGGGTCTTGATTCGCTTGACGCTGCTG" records binding signal of 3 z-score or higher.
Out: MET
